# Tested on: Mycolicibacterium smegmatis
# procedure_text: Antibacterial activity was evaluated against Mycobacterium smegmatis
# Format: functional
MIC values by entry

compound_structure | MIC
Cc1ccc2nnn3c4ccccc4c(N=O)c3c2c1 | > 5 µM

**Q:** Request the reported MIC associated with "COc1ccc2c(c1)c(N=O)c1c3ccccc3nnn21"
**A:** > 5 µM

**Q:** Same lookup for "CN[C@@H]1[C@H](O[C@H]2[C@H](O[C@H]3[C@H](O)[C@@H](O)[C@H](N=C(N)N)[C@@H](O)[C@@H]3N=C(N)N)O[C@@H](C)[C@]2(O)C=O)O[C@@H](CO)[C@H](O)[C@H]1O" , please.
**A:** 5 µM

**Q:** Now this one: "O=Nc1c2ccccc2n2nnc3cc(Cl)ccc3c12"
**A:** > 5 µM
